Biological target: Cyclin A (Homo sapiens, UniProt P20248)
Sequence (P20248 whole entry): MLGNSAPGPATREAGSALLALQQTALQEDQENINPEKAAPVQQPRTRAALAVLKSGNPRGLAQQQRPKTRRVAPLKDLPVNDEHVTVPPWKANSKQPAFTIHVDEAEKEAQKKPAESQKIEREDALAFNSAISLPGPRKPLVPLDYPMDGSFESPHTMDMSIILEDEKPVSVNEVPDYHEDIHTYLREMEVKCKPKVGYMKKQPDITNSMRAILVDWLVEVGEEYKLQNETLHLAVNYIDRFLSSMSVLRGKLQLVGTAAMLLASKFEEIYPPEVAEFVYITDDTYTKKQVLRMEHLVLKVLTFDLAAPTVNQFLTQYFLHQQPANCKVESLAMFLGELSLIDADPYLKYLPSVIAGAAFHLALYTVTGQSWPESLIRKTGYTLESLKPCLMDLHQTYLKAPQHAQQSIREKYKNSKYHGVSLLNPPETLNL
Test: Cyclin A binding assay, immobilised biotinyl-Ahx-[…]NH2
Settings: Leu157 substitutions; relative to H-His-Ala-Lys-Arg-Arg-Leu-Ile-Phe-NH2 (=1)
Square brackets hold non-standard residues; d marks the D form. 1Nal = N[C@@H](Cc1cccc2ccccc12)C(=O)O; Cha = N[C@@H](CC1CCCCC1)C(=O)O; Nle = CCCC[C@H](N)C(=O)O; Nva = CCC[C@H](N)C(=O)O
metric.name: Relative activity Cyclin A Binding

Use these answered entries as a reference point.
# substance, target.desc, readout.value
records = [
    ("H-His-Ala-Lys-Arg-Arg-Val-Ile Phe-NH2 (H-HAKRRVIF-NH2)", "Cyclin A (Homo sapiens, UniProt P20248)", "<0.1"),
    ("H-His-Ala-Lys-Arg-Arg-Phe-Ile Phe-NH2 (H-HAKRRFIF-NH2)", "Cyclin A (Homo sapiens, UniProt P20248)", "<0.1"),
    ("H-His-Ala-Lys-Arg-Arg-Nle-Ile Phe-NH2 (H-HAKRR[Nle]IF-NH2; SMILES CCCC[C@H](NC(=O)[C@H](CCCNC(=N)N)NC(=O)[C@H](CCCNC(=N)N)NC(=O)[C@H](CCCCN)NC(=O)[C@H](C)NC(=O)[C@@H](N)Cc1c[nH]cn1)C(=O)N[C@H](C(=O)N[C@@H](Cc1ccccc1)C(N)=O)[C@@H](C)CC)", "Cyclin A (Homo sapiens, UniProt P20248)", "<0.1"),
    ("H-His-Ala-Lys-Arg-Arg-Cha-Ile Phe-NH2 (H-HAKRR[Cha]IF-NH2; SMILES CC[C@H](C)[C@H](NC(=O)[C@H](CC1CCCCC1)NC(=O)[C@H](CCCNC(=N)N)NC(=O)[C@H](CCCNC(=N)N)NC(=O)[C@H](CCCCN)NC(=O)[C@H](C)NC(=O)[C@@H](N)Cc1c[nH]cn1)C(=O)N[C@@H](Cc1ccccc1)C(N)=O)", "Cyclin A (Homo sapiens, UniProt P20248)", "<0.1"),
    ("H-His-Ala-Lys-Arg-Arg-1Nap-Ile Phe-NH2 (H-HAKRR[1Nal]IF-NH2; SMILES CC[C@H](C)[C@H](NC(=O)[C@H](Cc1cccc2ccccc12)NC(=O)[C@H](CCCNC(=N)N)NC(=O)[C@H](CCCNC(=N)N)NC(=O)[C@H](CCCCN)NC(=O)[C@H](C)NC(=O)[C@@H](N)Cc1c[nH]cn1)C(=O)N[C@@H](Cc1ccccc1)C(N)=O)", "Cyclin A (Homo sapiens, UniProt P20248)", "<0.1"),
]

Lab note: each substance below needs its Relative activity Cyclin A Binding filled in.
1. H-His Ala-Lys-Arg-Arg-Ile-Ile Phe-NH2 (H-HAKRRIIF-NH2)
2. H-His-Ala-Lys-Arg-Arg-Nva-Ile Phe-NH2 (H-HAKRR[Nva]IF-NH2; SMILES CCC[C@H](NC(=O)[C@H](CCCNC(=N)N)NC(=O)[C@H](CCCNC(=N)N)NC(=O)[C@H](CCCCN)NC(=O)[C@H](C)NC(=O)[C@@H](N)Cc1c[nH]cn1)C(=O)N[C@H](C(=O)N[C@@H](Cc1ccccc1)C(N)=O)[C@@H](C)CC)

a:
1. 0.2
2. <0.1
